The values you see were collected from ChEMBL document CHEMBL1159117.

EXPERIMENTAL_PROTOCOL: Cytotoxicity against HUVEC cells at >10 ug/ml
Type: cell-based
CONDITIONS_USED: human, read-out: INH
ASSAY_METRIC: cytotoxicity (%)
Write the number in % without appending the unit.

Past entries and their recorded results:
COc1cc(OC)c2c(c1)N(CCC(C)CCCC(C)CCCC(C)C)C(=O)c1cccc(OC)c1N2 (centres undefined): 32
CC(=O)Oc1cc(OC(C)=O)c2c(c1)N(C/C=C(\C)CC/C=C(\C)CCC=C(C)C)C(=O)c1cccc(OC(C)=O)c1N2: 0

Query: Name the reported cytotoxicity value associated with the molecule CC(C)CCCC(C)CCCC(C)CCN1C(=O)c2cccc(O)c2Nc2c(O)cc(O)cc21 (centres undefined)
Reply: 0

Query: Same thing, different molecule: COc1cc(OC)c2c(c1)N(C/C=C(\C)CC/C=C(\C)CCC=C(C)C)C(=O)c1cccc(OC)c1N2
Reply: 0

---

EXPERIMENTAL_PROTOCOL: Antiinvasive activity against mouse Colon 26-L5 by Matrigel assay
Assay type: functional
ASSAY_METRIC: IC50 (µg/mL)
Use µg/mL as the unit, but write only the number.

COc1cc(OC)c2c(c1)N(CCC(C)CCCC(C)CCCC(C)C)C(=O)c1cccc(OC)c1N2 (stereo not given): 1
COc1cc(OC)c2c(c1)N(C/C=C(\C)CC/C=C(\C)CCC=C(C)C)C(=O)c1cccc(OC)c1N2: 1

Query: Tell me the measured IC50 of CC(C)=CCC/C(C)=C/CC/C(C)=C/CN1C(=O)c2cccc(O)c2Nc2c(O)cc(O)cc21 [DIAZEPINOMICIN] , please.
Reply: 1

---

System: HUVEC
EXPERIMENTAL_PROTOCOL: Antiangiogenic activity against HUVEC cells assessed as inhibition of vascular formation after 6 hrs by […]
Type: functional, cell-based
CONDITIONS_USED: Homo sapiens
Listed next: entries and their corresponding IC50.
Give a bare numeral; the unit µg/mL is implied.

Worked set:
CC(C)=CCC/C(C)=C/CC/C(C)=C/CN1C(=O)c2cccc(O)c2Nc2c(O)cc(O)cc21 [DIAZEPINOMICIN]: 0.72
CC(C)CCCC(C)CCCC(C)CCN1C(=O)c2cccc(O)c2Nc2c(O)cc(O)cc21 (stereo unspecified): 0.23
COc1cc(OC)c2c(c1)N(C/C=C(\C)CC/C=C(\C)CCC=C(C)C)C(=O)c1cccc(OC)c1N2: 0.11

// next item, IC50 requested
Query: Record CO[C@@H]1[C@H](OC(=O)/C=C/C=C/C=C/C=C/C(=O)O)CC[C@]2(CO2)[C@H]1[C@@]1(C)O[C@@H]1CC=C(C)C [FUMAGILLIN] : what is its IC50 with HUVEC?
Reply: 0.034

---

EXPERIMENTAL_TARGET: 72 kDa type IV collagenase (Homo sapiens)
Sequence (P08253 whole entry): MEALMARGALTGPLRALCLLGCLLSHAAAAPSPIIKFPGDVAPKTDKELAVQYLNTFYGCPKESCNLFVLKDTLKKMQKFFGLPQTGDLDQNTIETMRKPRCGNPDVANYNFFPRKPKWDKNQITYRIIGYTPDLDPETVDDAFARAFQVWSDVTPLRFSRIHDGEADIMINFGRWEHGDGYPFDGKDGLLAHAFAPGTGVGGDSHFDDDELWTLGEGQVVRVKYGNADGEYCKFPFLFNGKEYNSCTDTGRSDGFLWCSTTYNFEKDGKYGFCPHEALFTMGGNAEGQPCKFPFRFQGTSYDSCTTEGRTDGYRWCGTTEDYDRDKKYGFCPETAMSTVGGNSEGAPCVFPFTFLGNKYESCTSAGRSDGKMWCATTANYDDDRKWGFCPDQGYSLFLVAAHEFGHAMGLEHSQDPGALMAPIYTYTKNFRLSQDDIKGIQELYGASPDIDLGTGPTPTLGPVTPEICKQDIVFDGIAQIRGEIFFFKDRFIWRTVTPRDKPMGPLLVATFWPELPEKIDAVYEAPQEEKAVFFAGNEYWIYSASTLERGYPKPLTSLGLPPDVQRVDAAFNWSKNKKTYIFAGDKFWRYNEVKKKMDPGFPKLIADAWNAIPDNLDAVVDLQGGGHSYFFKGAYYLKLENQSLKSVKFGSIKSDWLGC
ASSAY_METRIC: pIC50
# reply with the number alone; pIC50 is -log10 of concentration in mol/L

Query: Endpoint output: pIC50 of CC(C)=CCC/C(C)=C/CC/C(C)=C/CN1C(=O)c2cccc(O)c2Nc2c(O)cc(O)cc21 [DIAZEPINOMICIN] . Value?
Reply: 6.00

---

Measured IC50, listed per entry.
Tested on: HUVEC
EXPERIMENTAL_PROTOCOL: Antiinvasive activity against HUVEC assessed as inhibition of cell migration after 6 hrs by Matrigel assay
Type: functional, cell-based
CONDITIONS_USED: Homo sapiens
Supply the numeric figure in µg/mL, leaving out any unit text.

CC(C)CCCC(C)CCCC(C)CCN1C(=O)c2cccc(O)c2Nc2c(O)cc(O)cc21 (centres undefined): 0.0024
COc1cc(OC)c2c(c1)N(C/C=C(\C)CC/C=C(\C)CCC=C(C)C)C(=O)c1cccc(OC)c1N2: 0.0076
CO[C@@H]1[C@H](OC(=O)/C=C/C=C/C=C/C=C/C(=O)O)CC[C@]2(CO2)[C@H]1[C@@]1(C)O[C@@H]1CC=C(C)C [FUMAGILLIN]: 0.023

Query: Please give the measured IC50 for this compound: CC(C)=CCC/C(C)=C/CC/C(C)=C/CN1C(=O)c2cccc(O)c2Nc2c(O)cc(O)cc21 [DIAZEPINOMICIN]
Reply: 0.43

---

Catalogue of IC50 readings, one per entry.
EXPERIMENTAL_PROTOCOL: Cytotoxicity against mouse Colon 26-L5 cells
Assay type: functional, cell-based
Enter your answer as a number in µg/mL; do not include the unit.

These solved cases illustrate the format of a correct answer.
CC(=O)Oc1cc(OC(C)=O)c2c(c1)N(C/C=C(\C)CC/C=C(\C)CCC=C(C)C)C(=O)c1cccc(OC(C)=O)c1N2: 7.6
CC(C)=CCC/C(C)=C/CC/C(C)=C/CN1C(=O)c2cccc(O)c2Nc2c(O)cc(O)cc21 [DIAZEPINOMICIN]: 7.8

Proceed to the following item.
Query: IC50 for CC(C)CCCC(C)CCCC(C)CCN1C(=O)c2cccc(O)c2Nc2c(O)cc(O)cc21 (stereo not given) ?
Reply: 10

---

Tested on: Renca
EXPERIMENTAL_PROTOCOL: Cytotoxicity against mouse Renca cells
Type: functional, cell-based
# Lookup of reported IC50 keyed by entry

Known results for compounds:
CC(=O)Oc1cc(OC(C)=O)c2c(c1)N(C/C=C(\C)CC/C=C(\C)CCC=C(C)C)C(=O)c1cccc(OC(C)=O)c1N2: > 10 µg/mL
COc1cc(OC)c2c(c1)N(CCC(C)CCCC(C)CCCC(C)C)C(=O)c1cccc(OC)c1N2 (stereo not given): > 10 µg/mL
COc1cc(OC)c2c(c1)N(C/C=C(\C)CC/C=C(\C)CCC=C(C)C)C(=O)c1cccc(OC)c1N2: > 10 µg/mL
CC(C)CCCC(C)CCCC(C)CCN1C(=O)c2cccc(O)c2Nc2c(O)cc(O)cc21 (stereo not given): > 10 µg/mL

Turning now to a further compound:
Query: Would you kindly share the measured IC50 for CC(C)=CCC/C(C)=C/CC/C(C)=C/CN1C(=O)c2cccc(O)c2Nc2c(O)cc(O)cc21 [DIAZEPINOMICIN] ?
Reply: 8.3 µg/mL
